Positions of bridges follow the written chain, without caps; N, C: chain ends. Non-standard residues stand in square brackets, D forms with d. Residues, ends and D or L forms follow the SMILES beside them. dBip = N[C@H](Cc1ccc(-c2ccccc2)cc1)C(=O)O; dDip = N[C@@H](C(=O)O)C(c1ccccc1)c1ccccc1; dPhe(4-Cl) = N[C@H](Cc1ccc(Cl)cc1)C(=O)O; Dip = N[C@H](C(=O)O)C(c1ccccc1)c1ccccc1; 2Nal = N[C@@H](Cc1ccc2ccccc2c1)C(=O)O; d2Nal = N[C@H](Cc1ccc2ccccc2c1)C(=O)O; 3Pal = N[C@@H](Cc1cccnc1)C(=O)O
# IC50 per entry for Somatostatin receptor type 1 (Homo sapiens)

compound	IC50 [nM]
CC(C)[C@@H]1NC(=O)[C@H](CCCCN)NC(=O)[C@@H](Cc2c[nH]c3ccccc23)NC(=O)[C@H](Cc2ccc(O)cc2)NC(=O)[C@H](NC(=O)[C@@H](N)Cc2ccc3ccccc3c2)CSSC[C@@H](C(=O)N[C@H](Cc2ccc3ccccc3c2)C(N)=O)NC1=O	1000
C[C@@H](O)[C@H](NC(=O)[C@H](Cc1ccccc1)NC(=O)[C@@H](NC(=O)[C@H](CCCCN)NC(=O)[C@@H](Cc1c[nH]c2ccccc12)NC(=O)[C@H](Cc1ccc(O)cc1)NC(=O)[C@@H](Cc1ccccc1)NC(=O)[C@@H](N)Cc1ccccc1)[C@@H](C)O)C(N)=O	1000
CC(C)[C@@H]1NC(=O)[C@H](CCCCN)NC(=O)[C@@H](Cc2c[nH]c3ccccc23)NC(=O)[C@H](Cc2ccc(O)cc2)NC(=O)[C@@H](NC(=O)[C@H](N)Cc2ccc3ccccc3c2)CSSC[C@H](C(=O)N[C@H](C(N)=O)[C@@H](C)O)NC1=O	4840
CC(C)[C@@H]1NC(=O)[C@H](CCCCN)NC(=O)[C@@H](Cc2c[nH]c3ccccc23)NC(=O)[C@H](Cc2cccnc2)NC(=O)[C@H](NC(=O)[C@@H](N)Cc2ccc3ccccc3c2)CSSC[C@@H](C(=O)N[C@@H](Cc2ccc3ccccc3c2)C(N)=O)NC1=O (H-[2Nal][dC][3Pal][dW]KVC[2Nal]-NH2; disulfide 2-7)	506
CC(C)[C@H](NC(=O)[C@H](CCCCN)NC(=O)[C@@H](Cc1c[nH]c2ccccc12)NC(=O)[C@H](Cc1ccc(O)cc1)NC(=O)[C@@H](Cc1ccc(Cl)cc1)NC(=O)[C@H](N)Cc1ccc2ccccc2c1)C(=O)N[C@@H](Cc1ccccc1)C(=O)N[C@H](C(N)=O)[C@@H](C)O (H-[d2Nal][dPhe(4-Cl)]Y[dW]KVFT-NH2)	1000
CC(C)[C@@H]1NC(=O)[C@H](CCCCN)NC(=O)[C@@H](Cc2c[nH]c3ccccc23)NC(=O)[C@H](Cc2ccc(O)cc2)NC(=O)[C@H](NC(=O)[C@H](N)Cc2ccc(-c3ccccc3)cc2)CSSC[C@@H](C(=O)N[C@@H](Cc2ccc3ccccc3c2)C(N)=O)NC1=O (H-[dBip][dC]Y[dW]KVC[2Nal]-NH2; disulfide 2-7)	1440
CC(C)[C@@H]1NC(=O)[C@H](CCCCN)NC(=O)[C@@H](Cc2c[nH]c3ccccc23)NC(=O)[C@H](Cc2cccnc2)NC(=O)[C@H](NC(=O)[C@@H](N)Cc2ccc3ccccc3c2)CSSC[C@@H](C(=O)N[C@H](C(N)=O)C(c2ccccc2)c2ccccc2)NC1=O (H-[2Nal][dC][3Pal][dW]KVC[Dip]-NH2; disulfide 2-7)	1000
CC(C)[C@@H]1NC(=O)[C@H](CCCCN)NC(=O)[C@@H](Cc2c[nH]c3ccccc23)NC(=O)[C@H](Cc2c[nH]cn2)NC(=O)[C@H](NC(=O)[C@@H](N)Cc2ccc3ccccc3c2)CSSC[C@@H](C(=O)N[C@@H](C(N)=O)C(c2ccccc2)c2ccccc2)NC1=O (H-[2Nal][dC]H[dW]KVC[dDip]-NH2; disulfide 2-7)	1090

---

Parameter IC50: see the listing below.
- subject of test: Somatostatin receptor
- assay comment: Compound was tested for in vitro SRIF inhibition of GH release in rats
- Assay type: functional
Positions of bridges follow the written chain, without caps; N, C: chain ends. Non-standard residues stand in square brackets, D forms with d. Residues, ends and D or L forms follow the SMILES beside them. dPhe(4-Cl) = N[C@H](Cc1ccc(Cl)cc1)C(=O)O; 2Nal = N[C@@H](Cc1ccc2ccccc2c1)C(=O)O; d2Nal = N[C@H](Cc1ccc2ccccc2c1)C(=O)O

compound	subject of test	IC50
CC(=O)N[C@@H](Cc1ccc2ccccc2c1)C(=O)N[C@@H]1CSSC[C@@H](C(=O)N[C@@H](Cc2ccc3ccccc3c2)C(N)=O)NC(=O)[C@H](C(C)C)NC(=O)[C@H](CCCCN)NC(=O)[C@@H](Cc2c[nH]c3ccccc23)NC(=O)[C@H](Cc2ccc(O)cc2)NC1=O (Ac-[2Nal][dC]Y[dW]KVC[2Nal]-NH2; disulfide 2-7)	Somatostatin receptor	56.7 nM
CC(C)[C@H](NC(=O)[C@H](CCCCN)NC(=O)[C@@H](Cc1c[nH]c2ccccc12)NC(=O)[C@H](Cc1ccc(O)cc1)NC(=O)[C@@H](Cc1ccc(Cl)cc1)NC(=O)[C@H](N)Cc1ccc2ccccc2c1)C(=O)N[C@@H](Cc1ccccc1)C(=O)N[C@H](C(N)=O)[C@@H](C)O (H-[d2Nal][dPhe(4-Cl)]Y[dW]KVFT-NH2)	Somatostatin receptor	3960 nM
CC(C)[C@@H]1NC(=O)[C@H](CCCCN)NC(=O)[C@@H](Cc2c[nH]c3ccccc23)NC(=O)[C@H](Cc2ccc(O)cc2)NC(=O)[C@@H](NC(=O)[C@@H](N)Cc2ccc3ccccc3c2)CSSC[C@H](C(=O)N[C@@H](Cc2ccc3ccccc3c2)C(N)=O)NC1=O	Somatostatin receptor	35.3 nM
CC(C)[C@@H]1NC(=O)[C@H](CCCCN)NC(=O)[C@@H](Cc2c[nH]c3ccccc23)NC(=O)[C@H](Cc2ccc(O)cc2)NC(=O)[C@H](NC(=O)[C@@H](N)Cc2ccc3ccccc3c2)CSSC[C@@H](C(=O)NC(C)(C)C)NC1=O	Somatostatin receptor	108600 nM

---

pIC50: −log10 of the molar value. Positions of bridges follow the written chain, without caps; N, C: chain ends. Non-standard residues stand in square brackets, D forms with d. Residues, ends and D or L forms follow the SMILES beside them. dPhe(4-Cl) = N[C@H](Cc1ccc(Cl)cc1)C(=O)O; d2Nal = N[C@H](Cc1ccc2ccccc2c1)C(=O)O
# pIC50 per entry for UniProtKB P31391
# Sequence (P31391 whole entry): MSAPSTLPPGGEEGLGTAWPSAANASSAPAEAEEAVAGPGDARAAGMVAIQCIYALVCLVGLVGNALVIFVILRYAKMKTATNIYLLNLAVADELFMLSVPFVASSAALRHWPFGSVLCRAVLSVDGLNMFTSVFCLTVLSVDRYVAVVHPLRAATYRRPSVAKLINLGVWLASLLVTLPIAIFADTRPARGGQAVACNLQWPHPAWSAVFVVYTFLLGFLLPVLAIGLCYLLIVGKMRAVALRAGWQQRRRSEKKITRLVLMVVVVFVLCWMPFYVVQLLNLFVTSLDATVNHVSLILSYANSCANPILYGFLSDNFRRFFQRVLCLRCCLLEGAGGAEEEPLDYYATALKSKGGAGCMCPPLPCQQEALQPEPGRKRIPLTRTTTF
metric name: pIC50

compound	result value
CC(C)[C@H](NC(=O)[C@H](CCCCN)NC(=O)[C@@H](Cc1c[nH]c2ccccc12)NC(=O)[C@H](Cc1ccc(O)cc1)NC(=O)[C@@H](Cc1ccc(Cl)cc1)NC(=O)[C@H](N)Cc1ccc2ccccc2c1)C(=O)N[C@@H](Cc1ccccc1)C(=O)N[C@H](C(N)=O)[C@@H](C)O (H-[d2Nal][dPhe(4-Cl)]Y[dW]KVFT-NH2)	6.00
CC(C)[C@@H]1NC(=O)[C@H](CCCCN)NC(=O)[C@@H](Cc2c[nH]c3ccccc23)NC(=O)[C@H](Cc2ccc(O)cc2)NC(=O)[C@@H](NC(=O)[C@H](N)Cc2ccc3ccccc3c2)CSSC[C@H](C(=O)N[C@@H](Cc2ccc3ccccc3c2)C(N)=O)NC1=O (stereo in doubt; 23)	6.51
CC(C)[C@@H]1NC(=O)[C@H](CCCCN)NC(=O)[C@@H](Cc2c[nH]c3ccccc23)NC(=O)[C@H](Cc2ccc(O)cc2)NC(=O)[C@H](NC(=O)[C@@H](N)Cc2ccc3ccccc3c2)CSSC[C@@H](C(=O)N[C@H](Cc2ccc3ccccc3c2)C(N)=O)NC1=O	6.00
CC(C)[C@@H]1NC(=O)[C@H](CCCCN)NC(=O)[C@@H](Cc2c[nH]c3ccccc23)NC(=O)[C@H](Cc2ccc(O)cc2)NC(=O)[C@H](NC(=O)[C@@H](N)Cc2c[nH]c3ccccc23)CSSC[C@@H](C(=O)N[C@H](Cc2ccc3ccccc3c2)C(N)=O)NC1=O (H-W[dC]Y[dW]KVC[d2Nal]-NH2; disulfide 2-7)	6.00

---

- subject of test: Somatostatin receptor
- assay comment: Compound was tested for in vitro SRIF inhibition of GH release in rats
- Type: functional
Positions of bridges follow the written chain, without caps; N, C: chain ends. Non-standard residues stand in square brackets, D forms with d. Residues, ends and D or L forms follow the SMILES beside them. 2Nal = N[C@@H](Cc1ccc2ccccc2c1)C(=O)O; 3Pal = N[C@@H](Cc1cccnc1)C(=O)O

compound	subject of test	IC50, µM
CC(C)[C@@H]1NC(=O)[C@H](CCCCN)NC(=O)[C@@H](Cc2c[nH]c3ccccc23)NC(=O)[C@H](Cc2cccnc2)NC(=O)[C@H](NC(=O)[C@@H](N)Cc2ccccc2)CSSC[C@@H](C(=O)N[C@@H](Cc2ccc3ccccc3c2)C(N)=O)NC1=O (H-F[dC][3Pal][dW]KVC[2Nal]-NH2; disulfide 2-7)	Somatostatin receptor	0.058
CC(C)[C@@H]1NC(=O)[C@H](CCCCN)NC(=O)[C@@H](Cc2c[nH]c3ccccc23)NC(=O)[C@H](Cc2cccnc2)NC(=O)[C@H](NC(=O)[C@@H](N)Cc2ccc3ccccc3c2)CSSC[C@@H](C(=O)N[C@@H](Cc2ccc3ccccc3c2)C(N)=O)NC1=O (H-[2Nal][dC][3Pal][dW]KVC[2Nal]-NH2; disulfide 2-7)	Somatostatin receptor	0.0151
C[C@@H](O)[C@@H]1NC(=O)[C@H](CCCCN)NC(=O)[C@@H](Cc2c[nH]c3ccccc23)NC(=O)[C@H](Cc2ccc(O)cc2)NC(=O)[C@H](NC(=O)[C@H](N)Cc2ccc3ccccc3c2)CSSC[C@@H](C(=O)N[C@@H](Cc2ccc3ccccc3c2)C(N)=O)NC1=O	Somatostatin receptor	180
C[C@@H](O)[C@H](NC(=O)[C@@H]1CSSC[C@@H](NC(=O)[C@@H](N)Cc2ccc(O)cc2)C(=O)N[C@@H](Cc2cccnc2)C(=O)N[C@H](Cc2c[nH]c3ccccc23)C(=O)N[C@@H](CCCCN)C(=O)N[C@@H]([C@@H](C)O)C(=O)N1)C(N)=O	Somatostatin receptor	98.65

Attribution: ChEMBL document CHEMBL1131316
